Entries and their GI50
tested on: ACHN; assay: NCI tumour cell line growth inhibition, 48 h
Active and inactive are the calls of the source. No stated cut-off is given here; in the data, active = GI50 up to about 1.1 µM and inactive = higher.

molecule | GI50
CCCCN[C@H]1C2C3CC4C5CC(C42)C1(C)C53 (stereo partly drawn) | > 100 µM (inactive)
Cc1cc(=O)oc2c(C)c3oc(CBr)c(Br)c3cc12 | 35.6 µM (inactive)
O=C(O)CCCCC1CCSS1 (stereo not drawn) | > 100 µM (inactive)
O=C(Nc1nc2ccc([N+](=O)[O-])cc2s1)C(=O)C(C(=O)c1ccccc1F)C1OC(=O)c2ccccc21 (stereo not drawn) | 59.4 µM (inactive)
C[S+](C)([O-])=Nn1c(=O)n2n(c1=O)[C@H]1CC[C@@H]2C1 | > 100 µM (inactive)
Cc1ccc2[nH]c3[nH]c(=S)[nH]c(=O)c3c2c1 | > 100 µM (inactive)
CC(=O)CC1(O)C(=O)c2c(Br)sc(Br)c2C1=O | 34.3 µM (inactive)

// moving on: another record for GI50
Exercise: Recorded GI50 for COC1=C(Br)C(=O)c2nc(C)ccc2C1=O , please?
Solution: 10.7 µM (inactive)

====

test system: U-251; assay: NCI tumour cell line growth inhibition, 48 h
Calls of active or inactive are those of the source. Cut-off read from the data, not from the text of the source: active = GI50 up to about 1.1 µM and inactive = higher.
Form entry, call: pick from active, inactive

Observe how each entry below is paired with its result.
molecule | class.assignment
COC(=O)c1sc2ncc3c(c2c1N)CC(C)CC3 (configuration not stated) | inactive
COc1ccc(OC)c(N2C(=O)CSC2c2cc(OC)c(OC)c(OC)c2)c1 (configuration not stated) | inactive

Exercise: For this molecule, state the assay outcome: Cc1ccc(S(=O)(=O)SCc2ccccc2)cc1
Solution: inactive

Exercise: Also need CC(C)(C)OC(=O)N1CCCC1C(=O)NCCNc1ccc(NCCNC(=O)C2CCCN2C(=O)OC(C)(C)C)c2c1C(=O)c1ccccc1C2=O (configuration not stated) , thanks.
Solution: inactive

Exercise: Also need COC(=O)C1(C(=O)OC)N=C(C)OC1/C=C/c1ccccc1 (configuration not stated) , thanks.
Solution: inactive

Exercise: Also need CCC(C)C(N)C(=O)N/N=C\c1c2c(nc3ccccc13)-c1cc3c(c(=O)n1C2)COC(=O)[C@]3(O)CC (some centres not stated) , thanks.
Solution: active

Exercise: Also need CCN1C(=S)n2cccc2C1CC(=O)c1ccc(Cl)cc1 (configuration not stated) , thanks.
Solution: inactive

====

Entries and their GI50
system: A549; assay: NCI tumour cell line growth inhibition, 48 h
The source made the active and inactive calls. No stated cut-off is given here; in the data, active = GI50 up to about 1.1 µM and inactive = higher.

# count of solved cases: 5
molecule | property | result
N#C/C(=C\c1cc2ccccc2c2ccccc12)c1ccccc1 | GI50 | 7.46 µM (inactive)
COc1ccc([C@@H]2OC(=O)C3C2C(=O)O[C@H]3c2ccc(OC)c(OC)c2)cc1OC (stereo partly drawn) | GI50 | > 100 µM (inactive)
COC(=O)C1(C(=O)OC)N=C(C)OC1/C=C/c1ccccc1 (stereo not drawn) | GI50 | > 100 µM (inactive)
[N-]=[N+]=Nc1c(Cl)c(=O)n(-c2ccccc2)c2ccccc12 | GI50 | 28.4 µM (inactive)
O=NN(CCCl)C(=O)N[C@H]1CCCC[C@@H]1Cl | GI50 | 61.5 µM (inactive)

Exercise: Recorded GI50 for O=C1C=CC2CCC1C2 (stereo not drawn) , please?
Solution: 40.6 µM (inactive)

Exercise: Also need Cn1cc(C(=O)NCCC(=N)N)cc1NC(=O)C1=[N+](C)C=C(NC(=O)c2cccc(C(=O)NC3=CC(C(=O)Nc4cc(C(=O)NCCC(=N)N)cn4C)=[N+](C)C3)c2)C1 , thanks.
Solution: > 100 µM (inactive)

Exercise: Also need COc1ccc(C2=C(Cl)c3cc(OC)c(OC)cc3C2OC)cc1OC (stereo not drawn) , thanks.
Solution: > 100 µM (inactive)

Exercise: Also need NC(=S)N1N=C2c3ccccc3CC[C@H]2[C@@H]1c1ccc(Cl)cc1 , thanks.
Solution: 30 µM (inactive)

Exercise: Also need O=C1NCC(NC(=O)C(F)(F)F)c2c(Br)sc(Br)c21 (stereo not drawn) , thanks.
Solution: > 100 µM (inactive)

Exercise: Also need COc1ccc(C(=O)/C(Br)=C/C(=O)O)cc1 , thanks.
Solution: 40.2 µM (inactive)

Exercise: Also need COC(=O)c1cc(C)ccc1CC(Cc1ccccc1C)C(=O)OC (stereo not drawn) , thanks.
Solution: 51.6 µM (inactive)

Exercise: Also need Cc1ccc(C)c(N2C(=O)C(=O)C(c3nc4ccccc4s3)C(=O)C2=O)c1 , thanks.
Solution: > 100 µM (inactive)

Exercise: Also need CN(C)CCn1c(=O)c2ccc3c4c(nn3CCN(C)C)c3cc([N+](=O)[O-])ccc3n(c1=O)c24 , thanks.
Solution: 0.0264 µM (active)
